# assay-target: human cannabinoid CB2 receptor (Homo sapiens, UniProt P34972)
# Sequence (P34972 whole entry): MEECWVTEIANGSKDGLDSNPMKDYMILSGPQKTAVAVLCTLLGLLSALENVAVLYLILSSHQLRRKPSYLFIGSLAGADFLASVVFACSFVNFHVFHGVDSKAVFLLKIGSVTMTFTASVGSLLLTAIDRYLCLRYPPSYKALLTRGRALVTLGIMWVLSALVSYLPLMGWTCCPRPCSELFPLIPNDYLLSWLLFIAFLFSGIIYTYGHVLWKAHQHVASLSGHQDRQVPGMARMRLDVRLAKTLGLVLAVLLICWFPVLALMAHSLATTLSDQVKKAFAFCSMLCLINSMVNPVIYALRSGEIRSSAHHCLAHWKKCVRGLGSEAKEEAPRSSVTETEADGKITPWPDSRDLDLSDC
# measurement-description: Cannabinoid CB2 receptor agonist activity (yeast reporter assay, FDGlu fluorescence)
# Assay type: cell-based
# reported-conditions: EC50 value at the cloned human cannabinoid CB2 receptor
property-label: EC50

[
  {
    "molecule": "Cc1ccc(Nc2ncc(C(=O)NCC3CCOCC3)c(C(F)(F)F)n2)c(Cl)c1 [Example 110]",
    "EC50": "300 to 1000 nM"
  },
  {
    "molecule": "O=C(NCC1CCCCC1)c1cnc(Nc2ccc(Br)cc2C(F)(F)F)nc1C(F)(F)F [Example 106]",
    "EC50": "300 to 1000 nM"
  },
  {
    "molecule": "Cc1cc(Cl)ccc1Nc1ncc(C(=O)NCC2CCCCC2)c(C(F)(F)F)n1 [Example 94]",
    "EC50": "300 to 1000 nM"
  },
  {
    "molecule": "Cc1ccc(Cl)cc1Nc1ncc(C(=O)NCC2CCCCC2)c(C(F)(F)F)n1 [Example 246]",
    "EC50": "20 to 300 nM"
  },
  {
    "molecule": "CN(Cc1ccccc1)C(=O)c1cnc(Nc2cccc(Br)c2)nc1C(F)(F)F [Example 279]",
    "EC50": "20 to 300 nM"
  },
  {
    "molecule": "O=C(NCc1ccnc(F)c1)c1cnc(Nc2cccc(Cl)c2Cl)nc1C(F)(F)F [Example 359]",
    "EC50": "20 to 300 nM"
  },
  {
    "molecule": "O=C(NCC1CCCC1)c1cnc(Nc2cc(F)cc(F)c2)nc1C(F)(F)F [Example 96]",
    "EC50": "300 to 1000 nM"
  }
]

Then this molecule:
Query: Consider the molecule shown here: O=C(NCC1CCCC1)c1cnc(Nc2ccc(F)c(Cl)c2)nc1C(F)(F)F [Example 247] What is its recorded EC50?
Response: 20 to 300 nM

###

Catalogue of Post-nanomilling 95% percentile values
# measurement-description: Particle size analysis (Lecotrac laser particle size analyser) pre and post nanomilling
# Type: physicochemical
# reported-conditions: Table C; after nanomilling, 1 g scale
# Method: 2.5 g of compound of example 176 was weighed into a 10 ml centrifuge tube. […] 22.5 ml of aqueous 1.5% HPMC was measured with a measuring cylinder into a 100 ml beaker. […] Compounds of Examples 19, 34, 194, 217, 228, 247 were nanomilled on a 1 g scale using the process described above and the particle size analysed pre and post nanomilling.
Only the number, expressed in μ, is required.

Some compounds with recorded Post-nanomilling 95% percentile:
[
  {
    "smiles-record": "O=C(NCC1CCOCC1)c1cnc(Nc2ccc(Cl)cc2Cl)nc1C(F)(F)F",
    "property-label": "Post-nanomilling 95% percentile",
    "number": 0.56
  },
  {
    "smiles-record": "O=C(NCC1CCCC1)c1cnc(Nc2ccc(F)c(Cl)c2)nc1C(F)(F)F",
    "property-label": "Post-nanomilling 95% percentile",
    "number": 2.53
  },
  {
    "smiles-record": "O=C(NCC1CCCCC1)c1cnc(Nc2cccc(F)c2)nc1C(F)(F)F",
    "property-label": "Post-nanomilling 95% percentile",
    "number": 1.40
  }
]

Query: Requested read-out: Post-nanomilling 95% percentile. Entry: O=C(NCC1CCC1)c1cnc(Nc2ccc(Cl)cc2F)nc1C(F)(F)F
Response: 1.69

Query: Do the same for N#Cc1ccc(Nc2ncc(C(=O)NCC3CCOCC3)c(C(F)(F)F)n2)cc1Cl please
Response: 1.30

Query: Can you check O=C(NCC1CCC1)c1cnc(Nc2ccc(F)c(Cl)c2)nc1C(F)(F)F next?
Response: 1.97

// provenance: patent US20080132505A1
